# System: 349418-098-R-PDC complex spheroid viability
# Measurement notes: Anticancer human tumor 349418-098-R-PDC patient-derived lung adenocarcinoma cell line growth inhibition
# Condition parameters: second compound 10 µM; first compound 0.003 µM; active compounds read low
I'd be grateful if you could share measured viability, T/C for these entries.
Answer in %, number only, no unit symbol.

Q: Give the reported value of viability, T/C for this record: Nc1ncn(C2CC(O)C(CO)S2)c(=O)n1 (stereo unspecified) + NC1CC1c1ccc(-c2cccc(O)c2)cc1
A: 81.6

Q: Could you please provide reported viability, T/C for CCc1c2c(nc3ccc(O)cc13)-c1cc3c(c(=O)n1C2)COC(=O)[C@]3(O)CC + NC1CC1c1ccc(-c2cccc(O)c2)cc1 ? Thanks!
A: 1.99

Q: Give the reported viability, T/C for this compound. Nc1ccn(C2OC(CO)C(O)C2(F)F)c(=O)n1 (stereo unspecified) + NC1CC1c1ccc(-c2cccc(O)c2)cc1
A: 4.98

Q: Assign viability, T/C to the following record: Nc1ccn(C2OC(CO)C(O)C2(F)F)c(=O)n1 (stereo unspecified) + NC1CCC(NC2CC2c2ccccc2)CC1
A: 5.31

Q: Identify measured viability, T/C corresponding to Nc1ncn(C2CC(O)C(CO)S2)c(=O)n1 (stereo unspecified) + NC1CCC(NC2CC2c2ccccc2)CC1
A: 86

Q: Fill in viability, T/C for record CCc1c2c(nc3ccc(O)cc13)-c1cc3c(c(=O)n1C2)COC(=O)[C@]3(O)CC + NC1CCC(NC2CC2c2ccccc2)CC1
A: 2.63

* * *

# Tested on: 349418-098-R-PDC complex spheroid viability
# Measurement notes: Anticancer human tumor 349418-098-R-PDC cell line growth inhibition; active = viability on the fitted dose curve at most 10% of control; inactive = the rest;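 also: spheroids exposed to agents for seven days before readout; 100% = DMSO vehicle control wells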
# Condition parameters: second compound 3.16 µM; first compound 0.316 µM
Please answer using one outcome listed in t for active, f for inactive

Q: I'd appreciate the recorded outcome for CC1COCCN1c1cc(-c2ccnn2C)c2ccnc(-c3ccn[nH]3)c2n1 (stereo unspecified) + NC1CC1c1ccc(-c2cccc(O)c2)cc1 from this test.
A: t

Q: What did this assay record as the result for O=C(C=Cn1cnc(-c2cc(C(F)(F)F)cc(C(F)(F)F)c2)n1)NNc1cnccn1 + NC1CC1c1ccc(-c2cccc(O)c2)cc1 ?
A: t

Q: For CC1(C)CCC(CN2CCN(c3ccc(C(=O)NS(=O)(=O)c4ccc(NCC5CCOCC5)c([N+](=O)[O-])c4)c(Oc4cnc5[nH]ccc5c4)c3)CC2)=C(c2ccc(Cl)cc2)C1 + NC1CCC(NC2CC2c2ccccc2)CC1 , what call appears in the results of this test?
A: f

Q: Record lookup: outcome of this test for COc1ccc([C@@H](O)c2cc(-c3ncnc4cc(N5CCOCC5)ccc34)c(F)cc2Cl)nn1 + NC1CCC(NC2CC2c2ccccc2)CC1 ?
A: f

Q: Tell me the assay call for Nc1ncn(C2CC(O)C(CO)O2)c(=O)n1 (stereo unspecified) + NC1CCC(NC2CC2c2ccccc2)CC1 please.
A: f

Q: For CC1(C)CCC(CN2CCN(c3ccc(C(=O)NS(=O)(=O)c4ccc(NCC5CCOCC5)c([N+](=O)[O-])c4)c(Oc4cnc5[nH]ccc5c4)c3)CC2)=C(c2ccc(Cl)cc2)C1 + NC1CC1c1ccc(-c2cccc(O)c2)cc1 , what call appears in the results of this test?
A: f

* * *

# System: 349418-098-R-PDC complex spheroid viability
# Measurement notes: Anticancer human tumor 349418-098-R-PDC cell line growth inhibition; active = viability on the fitted dose curve at most 10% of control; inactive = the rest;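 also: spheroids exposed to agents for seven days before readout; 100% = DMSO vehicle control wells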
# Condition parameters: second compound 3.16 µM; first compound 3 µM
Choose the fitting class; nothing outside active, inactive is accepted.

Q: Could you kindly confirm the outcome this assay logged for Nc1ccccc1NC(=O)c1ccc(CNC(=O)OCc2cccnc2)cc1 + NC1CC1c1ccc(-c2cccc(O)c2)cc1 ?
A: active

Q: For this molecule, state the assay outcome: CCN(c1cc(-c2ccc(CN3CCOCC3)cc2)cc(C(=O)NCc2c(C)cc(C)[nH]c2=O)c1C)C1CCOCC1 + NC1CCC(NC2CC2c2ccccc2)CC1
A: inactive

Q: Assay outcome for O=C(C=Cc1cccc(S(=O)(=O)Nc2ccccc2)c1)NO + NC1CCC(NC2CC2c2ccccc2)CC1 : what was it?
A: active

Q: Tell me the assay call for O=C(C=Cc1cccc(S(=O)(=O)Nc2ccccc2)c1)NO + NC1CC1c1ccc(-c2cccc(O)c2)cc1 please.
A: inactive

Q: Per the assay record, what outcome was assigned to COc1cc(C2c3cc4c(cc3C(OC3OC5COC(C)OC5C(O)C3O)C3COC(=O)C23)OCO4)cc(OC)c1O (configuration not stated) + NC1CCC(NC2CC2c2ccccc2)CC1 ?
A: active

Q: Which outcome was assigned to COc1cc(C2c3cc4c(cc3C(OC3OC5COC(C)OC5C(O)C3O)C3COC(=O)C23)OCO4)cc(OC)c1O (configuration not stated) + NC1CC1c1ccc(-c2cccc(O)c2)cc1 in this test?
A: active

Q: Identify the outcome logged in this assay for the molecule shown: NS(=O)(=O)OCC1CC(n2ccc3c(NC4CCc5ccccc54)ncnc32)CC1O (configuration not stated) + NC1CCC(NC2CC2c2ccccc2)CC1
A: active
